molecular target: Autotaxin (Homo sapiens) (UniProt Q13822); assay: Inhibition of human ATX catalytic activity in MDA-MB-231 cells using conditioned medium at 10 uM; type: cell-based
Kindly supply the reported inhibition values for the records listed here.
Answers are plain numbers, in %.

// known answers, use as guide
Please state recorded inhibition (tested on Autotaxin (Homo sapiens) (UniProt Q13822)) of CCCCCCCC/C=C\CCCCCCCC(=O)OCC1CSP(=O)(O)O1 (racemic)
55

Lab request: please report inhibition under test system Autotaxin (Homo sapiens) (UniProt Q13822) for CCCCCCCCCCCCCCCC(=O)OCC1CSP(=O)(O)O1 (racemic)
55

Give one value of inhibition per listed compound.
1. CCCCCCCCCCCCCCCCCC(=O)OCC1CSP(=O)(O)O1 (racemic)
2. CCCCCC/C=C\CCCCCCCC(=O)OCC1COP(=O)(O)C1 (stereo unspecified)
3. CCCCCCCC/C=C\CCCCCCCC(=O)OCC1COP(=O)(O)O1 (stereo unspecified)
4. CCCCCC/C=C\CCCCCCCC(=O)OCC1CSP(=O)(O)O1 (racemic)

[55, 66, 25, 55]

Where do the numbers come from? From ChEMBL document CHEMBL1795287.
